Assay: In vivo pharmacokinetic parameters
Conditions: plasma; Rat, po, 5 g/kg (so in the source); read-out: Maximum plasma concentration Cmax

[
  {
    "smiles input": "Cc1nc(N2CCC3(CC2)Cc2ccccc2[C@H]3N)n2ccnc2c1Sc1ccnc(N)c1Cl",
    "unit annotation": "nM",
    "Cmax": 211
  }
]

* * *

Test: In vivo pharmacokinetic parameters
Design: unit not given here
Conditions: plasma; Rat, po, (so in the source); read-out: Area under the curve AUC

[
  {
    "smiles input": "Cc1nc(N2CCC3(CC2)Cc2ccccc2[C@H]3N)n2ccnc2c1Sc1ccnc(N)c1Cl",
    "AUC": 3540
  }
]

Hey, just so you know, these numbers are from patent US12281118B2.
